Target: T1, human Nectin-4 (protein used in the fluorescence polarisation direct and competition binding assays) (human, UniProt Q96NY8 32-349)
T1 construct: It may be the Gly32-Ser349 FLAG construct described for SPR
T1 sequence (looked up): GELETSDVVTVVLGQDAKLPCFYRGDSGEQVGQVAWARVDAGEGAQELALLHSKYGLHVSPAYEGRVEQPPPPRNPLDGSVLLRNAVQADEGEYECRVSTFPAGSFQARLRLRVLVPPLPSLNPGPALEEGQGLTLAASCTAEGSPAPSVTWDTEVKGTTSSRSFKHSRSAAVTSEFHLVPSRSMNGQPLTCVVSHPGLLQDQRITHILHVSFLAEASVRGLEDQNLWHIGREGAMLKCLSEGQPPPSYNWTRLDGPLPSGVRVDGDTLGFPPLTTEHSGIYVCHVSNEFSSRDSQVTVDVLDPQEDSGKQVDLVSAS
Assay: fluorescence polarisation direct binding assay
pKd: −log10 of the molar value. *1 amine or outer side, *2 acyl side, *3 side chain or, on linkers, in order; H or OH if unused. Bridges are numbered along the chain shown (N, C = ends). Where no end group is shown, it is not given here. [ ]: non-standard residue; d: D form. TATA = O=C(CC[*:1])N1CN(C(=O)CC[*:2])CN(C(=O)CC[*:3])C1; fluorescein = fluorescein (Fl) label on lysine; Sar = CNCC(=O)O
quantity.kind: pKd

binder="ACPFGCHTDWSWPIWCA[Sar][Sar][Sar][Sar][Sar][Sar]K(fluorescein) (linker 2-6-16 via TATA, also called fluorescent peptide; tracer) [ACPFGCHTDWSWPIWCA-Sar6-K(FI) (SEQ ID NO: 2)]" assay_value=8.30
